Assay: Pharmacokinetics assay in rats after intragastrical administration
Assay type: in vivo
Conditions: both sexes, Sprague-Dawley, rat, plasma, po, SD rats, 2 mg/kg, read-out: Plasma concentration Cmax
Lab note: compare Cmax against 0.2 µg/mL. Equal or greater, write criterion met. Smaller, write criterion not met.

> print(dat)
                               given.smiles     category.label
1  Cc1cccc(-c2nn3c(c2-c2ccnc(-c4ccc(S(C)(=O)=O)cc4)c2)C2CCC3CC2)n1  criterion not met

Input line: Hi, just wondering whether "Cc1cccc(-c2nc3n(c2-c2ccnc(-c4ccc(S(C)(=O)=O)cc4)c2)[C@H]2CC[C@@H]3C2)n1" shows Cmax of 0.2 µg/mL or higher.
Output line: criterion met

Input line: Hi, just wondering whether "Cc1cccc(-c2nc3n(c2-c2ccc4nccc(C(N)=O)c4c2)[C@@H]2CC[C@H]3C2)n1" shows Cmax of 0.2 µg/mL or higher.
Output line: criterion not met

Input line: Hi, just wondering whether "Cc1cccc(-c2nc3n(c2-c2ccc4nccc(C(N)=O)c4c2)[C@H]2CC[C@@H]3C2)n1" shows Cmax of 0.2 µg/mL or higher.
Output line: criterion met

Input line: Hi, just wondering whether "Cc1cccc(-c2nc3n(c2-c2ccc4nnc(C(N)=O)n4c2)[C@H]2CC[C@@H]3C2)n1" shows Cmax of 0.2 µg/mL or higher.
Output line: criterion met

Input line: Hi, just wondering whether "NC(=O)c1ccnc2ccc(-c3c(-c4ccc(F)cn4)nc4n3[C@H]3CC[C@@H]4C3)cc12" shows Cmax of 0.2 µg/mL or higher.
Output line: criterion met

---

Assay: Pharmacokinetics assay in rats after intragastrical administration
Format: in vivo
Conditions: both sexes, Sprague-Dawley, rat, plasma, po, SD rats, 2 mg/kg, read-out: Clearance CLz/F
property name: CL/F

Consider the following illustrative entries.
> print(dat)
                                   compound          result
1  Cc1cccc(-c2nn3c(c2-c2ccnc(-c4ccc(S(C)(=O)=O)cc4)c2)C2CCC3CC2)n1 [Example 33]   193 mL/min/kg
2  Cc1cccc(-c2nc3n(c2-c2ccc4nccc(C(N)=O)c4c2)[C@H]2CC[C@@H]3C2)n1 [Example 1-1]  68.6 mL/min/kg
3  Cc1cccc(-c2nc3n(c2-c2ccc4nccc(C(N)=O)c4c2)[C@@H]2CC[C@H]3C2)n1 [Example 1-2]  89.2 mL/min/kg
4  Cc1cccc(-c2nc3n(c2-c2ccnc(-c4ccc(S(C)(=O)=O)cc4)c2)[C@H]2CC[C@@H]3C2)n1 [Example 3-1]  43.4 mL/min/kg
5  Cc1cccc(-c2nc3n(c2-c2ccc4nnc(C(N)=O)n4c2)[C@H]2CC[C@@H]3C2)n1 [Example 2-1]  50.8 mL/min/kg

Proceeding to the next compound to report its CL/F.
Input line: What does the data say about its CL/F? Entry: NC(=O)c1ccnc2ccc(-c3c(-c4ccc(F)cn4)nc4n3[C@H]3CC[C@@H]4C3)cc12 [Example 39-1]
Output line: 121 mL/min/kg

---

# IC50 annotations
System: Smad signaling pathway of TGFβRI
Experiment: Inhibition of Smad signaling pathway of TGFβRI (3TP-lux luciferase reporter in HepG2 cell)
Format: cell-based
Details: Homo sapiens; HepG2 cell, 3TP-lux plasmid, 18 hours; read-out: IC50 on the inhibition of Smad signaling pathway of TGFβRI

> print(dat)
                                   compound  property.name    result
1  Cc1cccc(-c2nc3n(c2-c2ccc4nccc(C(N)=O)c4c2)[C@@H]2CC[C@H]3C2)n1           IC50  0.015 µM

Input line: What does the data say about its IC50? Entry: Cc1cccc(-c2nc3n(c2-c2ccc4ncnn4c2)C2CCC3C2)n1 (centres unmarked)
Output line: 0.026 µM

Input line: What does the data say about its IC50? Entry: "Cn1cc(-c2cc(-c3c(-c4ccc(F)cn4)nc4n3[C@H]3CC[C@@H]4C3)ccn2)cn1"
Output line: 0.018 µM

Input line: What does the data say about its IC50? Entry: Cc1cccc(-c2nc3n(c2-c2ccnc(-c4ccc(S(C)(=O)=O)cc4)c2)C2CCC3C2)n1 (centres unmarked)
Output line: 0.058 µM

Input line: What does the data say about its IC50? Entry: Cc1cccc(-c2nc3n(c2-c2ccc4nccc(C(N)=O)c4c2)C2CCC3C2)n1 (centres unmarked)
Output line: 0.057 µM
